B1: glmS ribozyme (parent)
chain: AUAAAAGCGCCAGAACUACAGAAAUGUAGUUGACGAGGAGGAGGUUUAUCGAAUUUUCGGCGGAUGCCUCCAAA

Variants of: B1
Experiment: self-cleavage kobs at 10000 uM GlcN6P; higher = faster cleavage; RNA array
Details: with glucosamine-6-phosphate
Variants at the floor of the assay were thinned out.
Rule: self-cleavage kobs at 10000 uM GlcN6P of 0.0009 s⁻¹ or more gives Fulfilled; anything lower gives Not fulfilled.

Prompt: I'd appreciate it if you could say whether A6U U45G U46C has self-cleavage kobs at 10000 uM GlcN6P at least equal to 0.0009 s⁻¹.
Response: Not fulfilled

Prompt: Next variant up: A6G G29A G60C G63C
Response: Not fulfilled

Prompt: Next variant up: G32A U45G U47A
Response: Not fulfilled

Prompt: Next variant up: G40U G62U C68G
Response: Not fulfilled

Prompt: Next variant up: A36G G41C
Response: Not fulfilled

Prompt: Next variant up: G7C A53G
Response: Not fulfilled

Prompt: Next variant up: G59C U65G
Response: Not fulfilled

Prompt: Next variant up: A53C U65A
Response: Not fulfilled

Prompt: Next variant up: U30G C67A
Response: Fulfilled

Prompt: Next variant up: G9A G44C A53G U57A
Response: Not fulfilled

Prompt: Next variant up: A15U A52U C68A
Response: Not fulfilled

Prompt: Next variant up: U31C A39U
Response: Fulfilled

Prompt: Next variant up: U31G C61A
Response: Not fulfilled

Prompt: Next variant up: U31A U56A
Response: Fulfilled

Prompt: Next variant up: A12C U31A C34U A36C A52G C58A G63U
Response: Not fulfilled

Prompt: Next variant up: C8U G44U
Response: Not fulfilled

Prompt: Next variant up: G9C A39C
Response: Not fulfilled

Prompt: Next variant up: G9C A39U A42U
Response: Not fulfilled

Prompt: Next variant up: A39G G43A
Response: Not fulfilled

Prompt: Next variant up: C16G U65G
Response: Fulfilled

Prompt: Next variant up: U56C G62C
Response: Not fulfilled

Prompt: Next variant up: G7A G66U
Response: Not fulfilled

Prompt: Next variant up: A33G G37C C50G C68A
Response: Fulfilled

Prompt: Next variant up: A12G U57C C58G
Response: Not fulfilled

Prompt: Next variant up: U47A U69G
Response: Not fulfilled

Prompt: Next variant up: U49C G59C
Response: Not fulfilled

Prompt: Next variant up: A12C U30A U56A
Response: Fulfilled

Prompt: Next variant up: C16A U30G
Response: Not fulfilled

Prompt: Next variant up: A15C G32U A33C
Response: Not fulfilled

Prompt: Next variant up: G13U G29A
Response: Not fulfilled

Prompt: Next variant up: A39G C58G
Response: Not fulfilled

Prompt: Next variant up: G7C
Response: Not fulfilled

Prompt: Next variant up: A15G A52G C58G
Response: Not fulfilled

Prompt: Next variant up: G37A G66C
Response: Not fulfilled

Prompt: Next variant up: A6G U65C
Response: Not fulfilled

Prompt: Next variant up: C16G A53U
Response: Fulfilled

Prompt: Next variant up: G38A A52U C71U
Response: Not fulfilled

Prompt: Next variant up: G9U G43U
Response: Not fulfilled

Prompt: Next variant up: G13U C16U C19A G40U
Response: Not fulfilled

Prompt: Next variant up: G43U U46A U47G C70G
Response: Not fulfilled

Prompt: Next variant up: A14U U65A C70U
Response: Fulfilled

Prompt: Next variant up: A15G A53U U69G
Response: Not fulfilled

Prompt: Next variant up: A12U G37C
Response: Not fulfilled

Prompt: Next variant up: U30G U56A G66A
Response: Fulfilled

Prompt: Next variant up: A6C U55A
Response: Not fulfilled

Prompt: Next variant up: G29U C67A
Response: Not fulfilled
